TARGET_OR_TEST_SYSTEM: GSK-3β (Homo sapiens)
Sequence (P49841 whole entry): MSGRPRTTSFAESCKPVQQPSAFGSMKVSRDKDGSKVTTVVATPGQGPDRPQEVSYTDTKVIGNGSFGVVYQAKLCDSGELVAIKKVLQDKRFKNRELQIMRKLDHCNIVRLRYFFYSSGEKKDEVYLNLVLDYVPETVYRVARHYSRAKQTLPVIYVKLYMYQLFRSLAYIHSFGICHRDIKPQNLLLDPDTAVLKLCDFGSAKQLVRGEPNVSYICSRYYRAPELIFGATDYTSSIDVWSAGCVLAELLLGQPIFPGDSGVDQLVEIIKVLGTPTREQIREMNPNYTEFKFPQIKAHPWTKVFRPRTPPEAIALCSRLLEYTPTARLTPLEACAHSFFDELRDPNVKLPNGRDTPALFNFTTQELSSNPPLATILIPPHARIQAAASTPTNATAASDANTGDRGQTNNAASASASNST
PROCEDURE_DETAILS: KinaseProfiler protein kinase inhibition, GSK-3β
Format: biochemical
REPORTED_METRIC: IC50 (nM)
Just the number in nM, nothing appended.

Prompt: Looking for the measured IC50 of COc1cc(C2=C(c3cn(CCCO)c4ccccc34)C(=O)NC2=O)cc(OC)c1OC [IIe] , can you help?
Response: 2

---

TARGET_OR_TEST_SYSTEM: VEGFR-2 (Homo sapiens, UniProt P35968)
Construct: purchased Eurofins Pharma Discovery Services UK Limited (KinaseProfiler)
Sequence (P35968 20-1356): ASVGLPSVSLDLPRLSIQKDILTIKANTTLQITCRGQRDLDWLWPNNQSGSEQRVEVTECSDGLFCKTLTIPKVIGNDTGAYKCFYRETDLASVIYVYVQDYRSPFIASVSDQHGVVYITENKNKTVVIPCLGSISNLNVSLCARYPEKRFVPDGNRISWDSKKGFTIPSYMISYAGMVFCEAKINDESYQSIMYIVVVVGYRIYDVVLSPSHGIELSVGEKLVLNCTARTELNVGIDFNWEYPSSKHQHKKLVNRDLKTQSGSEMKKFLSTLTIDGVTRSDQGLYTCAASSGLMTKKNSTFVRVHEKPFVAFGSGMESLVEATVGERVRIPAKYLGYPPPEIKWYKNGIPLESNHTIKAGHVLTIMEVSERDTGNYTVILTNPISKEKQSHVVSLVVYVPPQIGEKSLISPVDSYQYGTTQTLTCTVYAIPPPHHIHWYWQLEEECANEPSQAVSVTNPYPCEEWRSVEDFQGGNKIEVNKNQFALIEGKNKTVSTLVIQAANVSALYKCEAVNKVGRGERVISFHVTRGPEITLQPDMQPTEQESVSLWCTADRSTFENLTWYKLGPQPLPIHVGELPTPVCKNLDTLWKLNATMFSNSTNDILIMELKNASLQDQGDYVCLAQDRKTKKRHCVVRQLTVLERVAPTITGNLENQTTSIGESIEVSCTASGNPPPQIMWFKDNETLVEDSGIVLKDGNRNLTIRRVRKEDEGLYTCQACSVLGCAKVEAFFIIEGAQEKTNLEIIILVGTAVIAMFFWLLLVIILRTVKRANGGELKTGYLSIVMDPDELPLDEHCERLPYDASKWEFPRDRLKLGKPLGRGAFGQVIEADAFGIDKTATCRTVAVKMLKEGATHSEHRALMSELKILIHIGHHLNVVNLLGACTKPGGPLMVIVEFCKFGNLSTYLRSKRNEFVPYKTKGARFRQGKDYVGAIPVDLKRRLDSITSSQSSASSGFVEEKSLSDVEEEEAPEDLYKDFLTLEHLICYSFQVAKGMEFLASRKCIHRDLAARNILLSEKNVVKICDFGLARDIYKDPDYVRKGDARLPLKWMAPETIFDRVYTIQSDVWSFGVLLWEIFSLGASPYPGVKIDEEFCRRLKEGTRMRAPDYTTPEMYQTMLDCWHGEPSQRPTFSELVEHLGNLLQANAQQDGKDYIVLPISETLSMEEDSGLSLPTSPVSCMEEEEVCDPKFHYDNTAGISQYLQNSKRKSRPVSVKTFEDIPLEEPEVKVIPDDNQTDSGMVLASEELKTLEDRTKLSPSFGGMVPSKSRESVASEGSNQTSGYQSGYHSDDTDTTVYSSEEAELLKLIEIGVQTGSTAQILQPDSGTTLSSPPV
PROCEDURE_DETAILS: KinaseProfiler protein kinase inhibition, VEGFR-2
Type: biochemical
From the text: Detailed information can be found at: http://www.eurofins.com/pharma-services/pharma-discovery-services/services/in-vitro-pharmacology/kinases/biochemical.aspx. The assays are also described in Biochem. J. (2013) 451, 313-328.
REPORTED_METRIC: IC50 (nM)
Just the number in nM, nothing appended.

Prompt: Looking for the measured IC50 of COc1cc(C2=C(c3cn(CCO)c4ccc(F)cc34)C(=O)NC2=O)cc(OC)c1OC , can you help?
Response: 79

Prompt: Looking for the measured IC50 of COc1cc(C2=C(c3cn(CCCO)c4ccc(F)cc34)C(=O)NC2=O)cc(OC)c1OC , can you help?
Response: 168
